Tested on: M14
Assay: Growth inhibition of human M14 cells after 48 hrs by SRB assay
Type: functional
Details: M14, 48 h
Decision: GI50 beneath 500 nM gives Met; GI50 meeting or exceeding 500 nM gives Not met.

Study these solved cases before continuing.
- moleculeSmiles: "NC(=O)c1cc(I)ccc1NC(=O)/C=C/c1ccccc1"
  className: "Met"
- moleculeSmiles: "Cc1ccc(NC(=O)/C=C/c2ccccc2)c(C(N)=O)c1"
  className: "Not met"

Exam item: Criterion: GI50 strictly below 500 nM. Is it met by `NC(=O)c1cc(I)ccc1NC(=O)/C=C/c1ccccc1Cl` ?
Marked response: Not met

Exam item: Input `NC(=O)c1cc(Cl)ccc1NC(=O)/C=C/c1ccccc1`
Marked response: Not met

Exam item: Input `NC(=O)c1cc(Br)ccc1NC(=O)/C=C/c1ccccc1`
Marked response: Met

Data provenance: ChEMBL document CHEMBL1795311
